Examples of molecules with documented growth inhibition follow.
Experiment: NCI Yeast Anticancer Drug Screen. Data for the cln2 rad14 strain (AID 165);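 also: 0% = growth equal to vehicle treated cultures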
Details: S. cerevisiae cln2 rad14 strain, at 50.0 µM, stronger effect = higher value
About 79,000 compounds went through this panel and 15% of them were active in at least one assay; those are over-represented in the sample as a whole.
Expressed in %, but write only the number.

In the examples that follow, each entry is paired with its recorded growth inhibition.
Qu. # get_value(readout='growth inhibition', item= "NNc1ncnc2cccc(Cl)c12" )
Ans. -24.7

Qu. Repeat with "CCOc1ccccc1NC(=O)c1ccc(Cl)cc1"
Ans. 5.35

Qu. Repeat with CCCCCCCN(CCCCCCC)CC(O)c1cc2ccccc2c2cc(Br)ccc12 (configuration not stated)
Ans. -25

Qu. Repeat with "N/N=C/c1ccc2ccccc2n1"
Ans. -1.75

Qu. Repeat with "N=C(N)SCCC(=O)CCSC(=N)N"
Ans. 32.2

---
Qu. # get_value(readout='growth inhibition', item= "CC(C)(C)CC(C)(C)N1CNC(=S)NC1" )
Ans. 10.8

Qu. Repeat with "Cc1cc2c(=O)cc(-c3ccccc3Cl)oc2c(C(=O)O)c1C"
Ans. 8.2

Qu. Repeat with CC(C(/C=N/NC(N)=S)=N/NC(N)=S)N1C(=O)c2ccccc2C1=O (configuration not stated)
Ans. -5.1

Qu. Repeat with CCOC(=O)/C=C1\CCC(C)n2c1nccc2=O (configuration not stated)
Ans. -7.5

Qu. Repeat with CC(=O)NC1(C)C(C)C2CC1C(C)C2(C)C (configuration not stated)
Ans. -0.55

Qu. Repeat with "C[Si](C)(OCCS(=O)(=O)O)C1(Cc2cccc3ccccc23)S(=O)(=O)OCCOS1(=O)=O"
Ans. 18.1

Qu. Repeat with "Cc1cc(Cl)ccc1N=Cc1ccc(C=Nc2ccc(Cl)cc2C)cc1"
Ans. -1.55

----------
Examples of compounds with documented growth inhibition follow.
Experiment: NCI Yeast Anticancer Drug Screen. Data for the mlh1 rad18 strain (AID 175)
Conditions: S. cerevisiae mlh1 rad18 strain growth inhibition; at 50.0 µM; stronger effect = higher value
Compounds without any hit were thinned out: in the full panel of roughly 79,000, 15% have a hit.
Expressed in %, but write only the number.

In the examples that follow, each entry is paired with its recorded growth inhibition.
Qu. # get_value(readout='growth inhibition', item= CC1OC(OC2C(CO)OC(O[C@H]3CC[C@@]4(C)C(=CC[C@H]5[C@@H]6C[C@@H]7O[C@]8(CC[C@@H](C)CN8)[C@@H](C)[C@@H]7[C@@]6(C)CC[C@@H]54)C3)C(O)C2O)C(O)C(O)C1O (stereo partly drawn) )
Ans. 1.7

Qu. Repeat with "C[Si](Cn1ccc(=O)n(C[Si](C)(c2ccccc2)c2ccccc2)c1=O)(c1ccccc1)c1ccccc1"
Ans. 15.2

Qu. Repeat with "CCN(CC)P(=O)(c1ccc2c(c1)OCCOCCOCCOCCO2)N(CC)CC"
Ans. 37

Qu. Repeat with COC(=O)C(/C(=N/N)C(=O)Nc1cc(Cl)ccc1Cl)c1nc2ccc([N+](=O)[O-])cc2[nH]c1=O (stereo not drawn)
Ans. 15.6

Qu. Repeat with CCN(CC)C(CC(=O)c1ccccc1)C(=O)c1ccccc1 (stereo not drawn)
Ans. 49.6

Qu. Repeat with CSC1C(OC(=O)c2ccccc2)C(COC(=O)c2ccccc2)OC1n1cnc2ncnc(NC(=O)c3ccccc3)c21 (stereo not drawn)
Ans. 38.8

Qu. Repeat with "CCC(CC)C(=O)OCCc1ccccc1"
Ans. 0.75

Qu. Repeat with COC1OC(CO)C(O)C(NC(=O)[C@H](Cc2ccc(O)cc2)NC(=O)OCc2ccccc2)C1O (stereo partly drawn)
Ans. 7.1

---
Qu. # get_value(readout='growth inhibition', item= CCCCCCCCCCCCCCCCOc1ccc(C2=NCC(C)S2)c(C)c1 (stereo not drawn) )
Ans. 38.1

Qu. Repeat with "CCCCCCCCCO"
Ans. 19.3

Qu. Repeat with O=C(NC(CSSCC(NC(=O)OCc1ccccc1)C(=O)O)C(=O)O)OCc1ccccc1 (stereo not drawn)
Ans. -25.2

Qu. Repeat with O=C(O)C1CSCN1 (stereo not drawn)
Ans. 18.3

Qu. Repeat with "CCOc1ccc(/C=C\C(=O)O)cc1"
Ans. 1.55

Qu. Repeat with COc1ccc(C2OC(=O)C(=O)C2=O)cc1OC (stereo not drawn)
Ans. -8.65

Qu. Repeat with "O=C(O)c1cc2ccc(Cl)cc2c2cc(C(F)(F)F)ccc12"
Ans. 53.7

----------
Assay: NCI Yeast Anticancer Drug Screen. Data for the mec2-1 strain (AID 157)
Settings: S. cerevisiae mec2-1 strain, at 50.0 µM, stronger effect = higher value
Compounds without any hit were thinned out: in the full panel of roughly 79,000, 15% have a hit.
measured_quantity: growth inhibition (%)
Expressed in %, but write only the number.

Qu. # get_value(readout='growth inhibition', item= "c1ccc(CSc2nn[nH]n2)cc1" )
Ans. -8.1

---
Qu. # get_value(readout='growth inhibition', item= CN(C)CCC(O)c1ccccc1 (configuration not stated) )
Ans. -1.25

Qu. Repeat with CCOc1ccccc1NC(=O)C(Br)C(Br)c1ccccc1 (configuration not stated)
Ans. 0.65

Qu. Repeat with "CCCCCCCCCCCC(=O)CC(=O)c1c(O)cccc1O"
Ans. -11.6

Qu. Repeat with O=C(NC(CSSCC(NC(=O)OCc1ccccc1)C(=O)O)C(=O)O)OCc1ccccc1 (configuration not stated)
Ans. -31.4

Qu. Repeat with "Cc1ccc(S(=O)(=O)N2CN3CN(C2)CN(S(=O)(=O)c2ccc(C)cc2)C3)cc1"
Ans. -26.9

Qu. Repeat with "N=c1sc2ccccc2n1CC(=O)O"
Ans. -16.5

Qu. Repeat with CCCCCCCN(CCCCCCC)CC(O)c1cc2ccccc2c2cc(Br)ccc12 (configuration not stated)
Ans. -33

Qu. Repeat with "N#C/C(=C/c1cccnc1)C(=O)c1ccccc1"
Ans. -18.9

Qu. Repeat with "CCCCC1(CC)COC2(CCCC2)OC1"
Ans. 2.25

Qu. Repeat with O=C1CSC(c2cccc(O)c2O)N1c1nncs1 (configuration not stated)
Ans. 0.25

Qu. Repeat with CC1OC(OC2C(Oc3cc(O)c4c(=O)cc(-c5ccc(O)cc5)oc4c3)OC(CO)C(O)C2O)C(O)C(O)C1O (configuration not stated)
Ans. 5.75

----------
Examples of compounds with documented growth inhibition follow.
Test: NCI Yeast Anticancer Drug Screen. Data for the mec2-1 strain (AID 157)
Details: S. cerevisiae mec2-1 strain, at 50.0 µM, stronger effect = higher value
The panel holds about 79,000 compounds, 15% with a hit somewhere; the sample as a whole holds those more often.
Expressed in %, but write only the number.

In the examples that follow, each entry is paired with its recorded growth inhibition.
Qu. # get_value(readout='growth inhibition', item= "N#CC(C#N)c1ccc(C(C#N)C#N)cc1" )
Ans. -6.75

Qu. Repeat with "CCc1cn(O)c(C)cc1=N"
Ans. 11.1

Qu. Repeat with "CC(=O)Oc1c2oc3cc(O)c(O)cc3c2c(OC(C)=O)c2oc3cc(O)c(O)cc3c12"
Ans. 0.05

Qu. Repeat with CCCOC(C)OCCC#CCC(C)OC(=O)CC(Cl)(Cl)Cl (stereo not given)
Ans. -21.4

Qu. Repeat with "CC(=O)/C(C)=C\c1ccc(C(C)C)cc1"
Ans. -12.7

Qu. Repeat with O=NN(CCCl)C(=O)NC1CCC(CC(=O)O)CC1 (stereo not given)
Ans. 6.1

Qu. Repeat with "c1csc(-c2cc(-c3ccsc3)c(-c3ccsc3)s2)c1"
Ans. -48.4

Qu. Repeat with "COc1ccc(N2C(=O)/C(=C/c3ccc(N(CCC#N)CCC#N)cc3C)N=C2c2cc([N+](=O)[O-])ccc2Cl)cc1"
Ans. 0.95

Qu. Repeat with "C=C1C(=O)O[C@@H]2[C@H]1CC[C@H](C)[C@]1(O)CCC(=O)[C@@]21C"
Ans. -13.6

Qu. Repeat with O=C1C(Cl)C(c2cccc(O)c2)N1n1cnc2ccccc2c1=O (stereo not given)
Ans. -4.15

---
Qu. # get_value(readout='growth inhibition', item= "COc1cc(/C=C/C(=O)c2ccccc2O)cc(OC)c1OC" )
Ans. -17.1

Qu. Repeat with "N#CCCNCCNCCC#N"
Ans. -2.25

Qu. Repeat with "CCCOC(=O)Nc1cccc(Cl)c1"
Ans. -8.7

Qu. Repeat with "O=NN(CC(=O)O)c1ccc2ccccc2c1"
Ans. -7.3

Qu. Repeat with Cc1cc(C)c(NS(=O)c2cccc(Cl)c2)c(C)c1 (stereo not given)
Ans. -26.3

Qu. Repeat with "CC1=CC(=O)c2cccc(NC3=NCCO3)c21"
Ans. -20.8

----------
Experiment: NCI Yeast Anticancer Drug Screen. Data for the sgs1 mgt1 strain (AID 161);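 also: 0% = growth of cultures given vehicle only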
Details: S. cerevisiae sgs1 mgt1 strain, at 50.0 µM, stronger effect = higher value
This is part of a sample that, as a whole, favours compounds with a hit. Of some 79,000 tested, about 15% had one in any assay.
Answer No if growth inhibition is under 10%, and Yes if it is 10% or more.

Example entries and their recorded answers appear below.
Qu. Check if growth inhibition >= 10% (inclusive). Item: "CCOc1ccc(Cc2ccc3c(c2)OCO3)cc1C"
Ans. No

Qu. Repeat with Cc1cccc(C(C)(O)c2cnc(C)n2Cc2ccccc2)c1 (stereo unspecified)
Ans. Yes

Qu. Repeat with CCOC(=O)C12CCC(=O)CC1(O)CCC1(C2)OCCCO1 (stereo unspecified)
Ans. No

Qu. Repeat with "O=Cc1ccc2c(c1)CC1(Cc3ccccc3C1)C2"
Ans. No

Qu. Repeat with Nc1ccc(C(=O)NN2C(=O)C(Cl)C2c2ccc(O)cc2)cc1 (stereo unspecified)
Ans. No

Qu. Repeat with "CCCCCC[C@H](C/C=C\CCCCCCCC(=O)OCCCC)OC(C)=O"
Ans. No

---
Qu. Check if growth inhibition >= 10% (inclusive). Item: "CC#CCOC(=O)c1ccccc1OC(C)=O"
Ans. Yes

Qu. Repeat with CCOC(=O)C(=O)C(CCc1ccc2ccc3cccc4ccc1c2c34)C(=O)OCC (stereo unspecified)
Ans. No
